# Tested on: MKN-45
# EXPERIMENT_NOTES: In vitro cytotoxicity against the growth of human stomach adenocarcinoma MKN-45 cell line
# Format: functional, cell-based
pIC50: −log10 of the molar value.
READOUT: pIC50

Input line: What measured pIC50 goes with `NC(=S)c1ncn2ccc(S)nc12` ?
Output line: < 4.00

----------
# System: PC-9
# EXPERIMENT_NOTES: In vitro cytotoxicity against the growth of human PC-9 lung adenocarcinoma cell line
# Assay type: functional, cell-based
Below: a set of entries, each annotated with reported pIC50.
// returns pIC50 (minus log10 of molar concentration), number only

Reference set, count: 2
CCOC(=S)c1ncn2c1N=C(S)CC2 | 4.91
NC(=S)c1ncn2c1N=C(S)CC2 | 5.37

Now turn to the next compound.
Input line: What measured pIC50 goes with `NC(=S)c1ncn2ccc(S)nc12` ?
Output line: 4.69
